Give pIC50 for every item shown.
- Test system: KB
- Test: Cytotoxicity against human KB cells assessed as growth inhibition after 48 hrs by SRB assay
- Format: functional, cell-based
Friendly reminder that pIC50 comes from taking -log10 of the concentration in mol/L.

What pIC50 value was documented for this molecule, CC(=O)O[C@H]1C(=O)[C@@]2(C)[C@H]([C@H](OC(=O)c3ccccc3)[C@]3(O)C[C@H](OC(=O)[C@H](O)[C@@H](NC(=O)c4ccccc4)c4ccccc4)C(C)=C1C3(C)C)[C@]1(OC(C)=O)CO[C@@H]1C[C@@H]2O ?
9.10

Can you handle COc1c2c(c(CC=C(C)C)c(O)c1C(C)=O)OC(C)(C)C(O)C2 (configuration not stated) next?
4.59

Can you handle COc1c2c(c(CCC(C)C)c(O)c1C(C)=O)OC(C)(C)C(O)C2 (configuration not stated) next?
4.69

Can you handle COc1c(CC=C(C)C)c2c(c(O)c1C(C)=O)CC(O)C(C)(C)O2 (configuration not stated) next?
4.41

* * *

- Tested on: KB
- Test: Cytotoxicity against human KB cells assessed as growth inhibition after 48 hrs by SRB assay
- Assay type: functional, cell-based
pIC50: −log10 of the molar value.
Give pIC50 for every item shown.

What pIC50 value was documented for this compound, COc1c(CC=C(C)C)c(O)c2c(c1C(C)=O)OC(C)(C)C(O)C2 (stereo not drawn) ?
< 4.40

Can you handle COc1c(CC=C(C)C)c2c(c(O)c1C(C)=O)CC(C(C)(C)O)O2 (stereo not drawn) next?
< 4.40

Can you handle COc1c2c(c(CC=C(C)C)c(O)c1C(C)=O)OC(C(C)(C)O)C2 (stereo not drawn) next?
< 4.40
